Can you tell me pIC50 for the items I'm about to list?
- assay-target: Na^+ /H^+ exchanger of rabbit erythrocytes (Oryctolagus cuniculus, UniProt P23791)
- Construct: exchanger of rabbit erythrocytes; endogenous in cells
- Sequence (P23791 whole entry): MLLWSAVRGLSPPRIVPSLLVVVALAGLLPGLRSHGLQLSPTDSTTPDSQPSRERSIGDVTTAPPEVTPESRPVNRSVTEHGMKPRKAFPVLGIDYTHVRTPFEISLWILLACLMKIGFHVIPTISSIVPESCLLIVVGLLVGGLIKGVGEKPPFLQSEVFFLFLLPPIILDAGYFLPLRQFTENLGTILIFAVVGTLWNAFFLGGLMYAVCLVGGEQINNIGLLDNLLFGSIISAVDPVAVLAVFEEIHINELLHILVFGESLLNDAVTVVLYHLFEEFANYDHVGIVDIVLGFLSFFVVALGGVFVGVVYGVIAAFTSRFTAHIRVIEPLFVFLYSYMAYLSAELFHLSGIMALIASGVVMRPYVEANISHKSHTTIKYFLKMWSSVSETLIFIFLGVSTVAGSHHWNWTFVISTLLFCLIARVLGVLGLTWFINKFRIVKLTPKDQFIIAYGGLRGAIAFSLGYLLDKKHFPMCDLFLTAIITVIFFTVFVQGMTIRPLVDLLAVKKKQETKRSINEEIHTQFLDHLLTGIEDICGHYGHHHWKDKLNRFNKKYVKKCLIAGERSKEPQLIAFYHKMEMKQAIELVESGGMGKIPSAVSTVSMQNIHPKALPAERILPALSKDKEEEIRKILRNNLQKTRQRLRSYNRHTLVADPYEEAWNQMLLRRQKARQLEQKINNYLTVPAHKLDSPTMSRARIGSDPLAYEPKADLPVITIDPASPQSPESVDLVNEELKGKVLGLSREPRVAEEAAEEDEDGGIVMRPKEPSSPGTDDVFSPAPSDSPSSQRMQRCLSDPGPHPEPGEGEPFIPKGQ
- measurement-description: Inhibition of the Na+/H+ exchanger of rabbit erythrocytes (amiloride-sensitive sodium influx, flame photometry)
- run-parameters: pH 7.4, 37° C., hyperosmolar salt/sucrose medium
- Procedure: Inhibitors of the Na^+ /H^+ exchanger of rabbit erythrocytes: White New Zealand rabbits (Ivanovas) were given a standard diet with 2% of cholesterol for six weeks in order to activate the Na^+ /H^+ exchange so that the Na^+ influx into the erythrocytes via Na^+ /H^+ exchange can be determined by flame photometry. […] The net Na^+ influx was calculated from the difference between the initial sodium levels and the sodium content of the erythrocytes after incubation. […]
pIC50: −log10 of the molar value. Structures can show the parent of a compound that is named as a salt.

Recorded result, C/C(=C\c1ccc(N(C)C)cc1)C(=O)N=C(N)N [Example 1, hydrochloride] , pIC50: > 6.00

Recorded result, C/C(=C\c1ccc(OCCCN(C)C)cc1)C(=O)N=C(N)N [Example 2, dihydrochloride] , pIC50: > 6.00
